# Experimental Target: 5-hydroxytryptamine receptor 1B (Rattus norvegicus)
# Sequence (P28564 whole entry): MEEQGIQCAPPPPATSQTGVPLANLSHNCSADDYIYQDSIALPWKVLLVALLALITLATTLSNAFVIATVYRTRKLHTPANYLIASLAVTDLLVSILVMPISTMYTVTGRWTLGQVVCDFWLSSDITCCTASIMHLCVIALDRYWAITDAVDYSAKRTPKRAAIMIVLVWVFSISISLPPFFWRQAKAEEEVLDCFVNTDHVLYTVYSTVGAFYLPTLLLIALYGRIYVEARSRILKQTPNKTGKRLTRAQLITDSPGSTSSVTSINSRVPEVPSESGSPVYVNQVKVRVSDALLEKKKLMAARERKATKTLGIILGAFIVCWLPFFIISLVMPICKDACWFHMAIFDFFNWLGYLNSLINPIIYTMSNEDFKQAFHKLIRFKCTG
pIC50: −log10 of the molar value.
Hi, to clarify the labels: fulfilled covers pIC50 from 8 upward, not fulfilled covers anything below 8.

Does the reported pIC50 for `COc1ccc(NC(=O)c2ccc(-c3ccc(-c4nnc(C)o4)cc3C)cc2)cc1N1CCN(C)CC1` fall at or above the 8 mark?
fulfilled

Does the reported pIC50 for `COc1ccc(NS(=O)(=O)c2ccc(-c3ccc(-c4nnc(C)o4)cc3C)cc2)cc1N1CCN(C)CC1` fall at or above the 8 mark?
not fulfilled

Does the reported pIC50 for `Cc1nc(-c2ccc(-c3ccc(C(=O)N4CCc5cc6c(cc54)C4(CCN(C)CC4)CO6)cc3)c(C)c2)no1` fall at or above the 8 mark?
fulfilled

Does the reported pIC50 for `COc1ccc(NC(=O)c2ccc(-c3ccc(C(=N)N)cc3C)cc2)cc1N1CCN(C)CC1` fall at or above the 8 mark?
fulfilled

Does the reported pIC50 for `Cc1nc(-c2ccc(-c3ccc(C(=O)Nc4ccc(OS(=O)(=O)C(F)(F)F)c(N5CCN(C)CC5)c4)cc3)c(C)c2)no1` fall at or above the 8 mark?
not fulfilled

Does the reported pIC50 for `COc1ccc(NC(=O)c2ccc(-c3ccc(C(N)=O)cc3C)cc2)cc1N1CCN(C)CC1` fall at or above the 8 mark?
fulfilled

* * *

Would you kindly list logP for each of these compounds?
# Assay Name: Partition coefficient (logP)
# Test Settings: octanol/water
# print the numeric value only

Which value of logP has been reported for `Cc1nnc(-c2ccc(-c3ccc(C(=O)Nc4ccc(O)c(N5CCN(C)CC5)c4)cc3)c(C)c2)o1` in the records?
3.54

Which value of logP has been reported for `Cc1nc(-c2ccc(-c3ccc(C(=O)Nc4ccc(OCCF)c(N5CCN(C)CC5)c4)cc3)c(C)c2)no1` in the records?
5.33

Which value of logP has been reported for `COc1ccc(NC(=O)c2ccc(-c3ccc(-c4noc(C)n4)cc3C)cc2)cc1N1CCN(C)CC1` in the records?
4.9

Which value of logP has been reported for `COc1ccc(NS(=O)(=O)c2ccc(-c3ccc(-c4nnc(C)o4)cc3C)cc2)cc1N1CCN(C)CC1` in the records?
4.04

Which value of logP has been reported for `Cc1nc(-c2ccc(-c3ccc(C(=O)N4CCc5cc6c(cc54)C4(CCN(C)CC4)CO6)cc3)c(C)c2)no1` in the records?
6.29

Which value of logP has been reported for `Cc1nc(-c2ccc(-c3ccc(C(=O)Nc4ccc(O)c(N5CCN(C)CC5)c4)cc3)c(C)c2)no1` in the records?
4.33

Which value of logP has been reported for `COc1ccc(NC(=O)c2ccc(-c3ccc(C(=N)N)cc3C)cc2)cc1N1CCN(C)CC1` in the records?
3.61

Which value of logP has been reported for `Cc1nnc(-c2ccc(-c3ccc(C(=O)Nc4ccc(OS(C)(=O)=O)c(N5CCN(C)CC5)c4)cc3)c(C)c2)o1` in the records?
3.38

Which value of logP has been reported for `Cc1nc(-c2ccc(-c3ccc(C(=O)Nc4ccc(OS(=O)(=O)C(F)(F)F)c(N5CCN(C)CC5)c4)cc3)c(C)c2)no1` in the records?
6.06

Which value of logP has been reported for `COc1ccc(NC(=O)c2ccc(-c3ccc(C(N)=O)cc3C)cc2)cc1N1CCN(C)CC1` in the records?
3.6

* * *

# Experimental Target: 5-hydroxytryptamine receptor 1A (Rattus norvegicus, UniProt P19327)
# Sequence (P19327 whole entry): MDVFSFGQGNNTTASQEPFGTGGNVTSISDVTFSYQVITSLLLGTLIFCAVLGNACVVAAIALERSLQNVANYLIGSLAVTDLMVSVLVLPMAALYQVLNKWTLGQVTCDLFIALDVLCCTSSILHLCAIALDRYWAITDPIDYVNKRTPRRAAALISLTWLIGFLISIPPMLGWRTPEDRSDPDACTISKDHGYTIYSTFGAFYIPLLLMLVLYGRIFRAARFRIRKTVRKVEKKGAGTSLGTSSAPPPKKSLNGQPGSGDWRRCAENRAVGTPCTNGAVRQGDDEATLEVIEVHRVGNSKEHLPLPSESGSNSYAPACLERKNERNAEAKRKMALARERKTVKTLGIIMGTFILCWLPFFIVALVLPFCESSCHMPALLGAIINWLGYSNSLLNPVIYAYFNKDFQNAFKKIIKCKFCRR
# Assay Name: Inhibition activity against 5-hydroxytryptamine 1A receptor in rat hippocampus membranes using radio binding assays
pIC50: −log10 of the molar value.
Would you kindly list pIC50 for each of these compounds?

Which value of pIC50 has been reported for `COc1ccc(NC(=O)c2ccc(-c3ccc(-c4nnc(C)o4)cc3C)cc2)cc1N1CCN(C)CC1` in the records?
< 6.00

Which value of pIC50 has been reported for `Cc1nc(-c2ccc(-c3ccc(C(=O)Nc4ccc(O)c(N5CCN(C)CC5)c4)cc3)c(C)c2)no1` in the records?
< 6.00

Which value of pIC50 has been reported for `Cc1nnc(-c2ccc(-c3ccc(C(=O)Nc4ccc(O)c(N5CCN(C)CC5)c4)cc3)c(C)c2)o1` in the records?
< 7.00

Which value of pIC50 has been reported for `Cc1nc(-c2ccc(-c3ccc(C(=O)Nc4ccc(OS(=O)(=O)C(F)(F)F)c(N5CCN(C)CC5)c4)cc3)c(C)c2)no1` in the records?
< 5.00
